B1: glmS ribozyme (parent)
chain: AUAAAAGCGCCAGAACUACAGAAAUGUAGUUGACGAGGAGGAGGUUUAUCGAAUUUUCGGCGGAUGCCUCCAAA

variants of: B1; assay: self-cleavage kobs at 2500 uM GlcN6P; higher = faster cleavage; RNA array; conditions: with glucosamine-6-phosphate
This sample holds only a part of the variants without activity.
Provide the recorded self-cleavage kobs at 2500 uM GlcN6P for the entries that follow.

Summary for this variant, AUAAAAGCGCCAGAACUACAGAAAUGUAGUUGACGAGGGGGAUGUUUAUCGAAUUUUAGGCGGAUGCCUCCAAA [A39G G43U C58A] : self-cleavage kobs at 2500 uM GlcN6P is < 1e-05 s⁻¹

Summary for this variant, AUAAAAGCGCCAGAACUACAGAAAUGUAGUUGACGACGAGGACGUUCAUCGAAUUUUCGGCGGAUGCCUCCAAA [G37C G43C U47C] : self-cleavage kobs at 2500 uM GlcN6P is < 1e-05 s⁻¹

Summary for this variant, AUAAAAGCGCCACAACUACAGAAAUGUAGUUGACGAGGAGGAUGUUUAUCGUAUUUUCGGCGGAUGCCUCCAAA [G13C G43U A52U] : self-cleavage kobs at 2500 uM GlcN6P is < 1e-05 s⁻¹

Summary for this variant, AUAAAAUCGCCAGAACUACAGAAAUGUAGUUGACGAGGACGAGUUUCAUCUAAUUUUCGGCGGAUGCCUCCAAA [G7U G40C G44U U47C G51U] : self-cleavage kobs at 2500 uM GlcN6P is < 1e-05 s⁻¹

Summary for this variant, AUAAAAGCGCCAGAACUACAGAAAUGUAGUGCACGAGGAGGAGGUUUAUCGAAUUUUCGGCGGAUGCCUCCAAA [U31G G32C] : self-cleavage kobs at 2500 uM GlcN6P is 0.000186 s⁻¹

Summary for this variant, AUAAAAGCGCCAGAACUACAGAAAUGUAGUUGACGAAGAGGGGGUUUAUCGAAUUUUCGGCGGAUGCCUCGAAA [G37A A42G C71G] : self-cleavage kobs at 2500 uM GlcN6P is 5.5e-05 s⁻¹

Summary for this variant, AUAAAAGCGCAAGUACUACAGAAAUGUAGUUGACGAGGAGGAGGUUUAUCGAAUUUUCGGCGGAUGCCUCCAAA [C11A A14U] : self-cleavage kobs at 2500 uM GlcN6P is 6.89e-05 s⁻¹

Summary for this variant, AUAAAAGCGCCAGAACUACAGAAAUGUAGUGGACGAGGAGGACGUUUAUCGAAUUUUCGGCGGAUGCCUCCAAA [U31G G43C] : self-cleavage kobs at 2500 uM GlcN6P is < 1e-05 s⁻¹

Summary for this variant, AUAAAGGCGCCAGAACUACAGAAAUGUAGUUGACGAGGAGGAGGUUUAUCUAAUUUUUGGCGGAUGCCUCCAAA [A6G G51U C58U] : self-cleavage kobs at 2500 uM GlcN6P is < 1e-05 s⁻¹

Summary for this variant, AUAAAAGCUCCAGAACUACAGAAAUGUAGUUGACUACGAGGAGGUUUAUCCAAUUUUCGGCGGAUGCCUCCAAA [G9U G35U G37C G51C] : self-cleavage kobs at 2500 uM GlcN6P is < 1e-05 s⁻¹

Summary for this variant, AUAAAGGCGCCAGAACUACAGAAAUGUAGUUGACGAGGAGGAGGUUUAUCGAAUUUUCGCCGGAUGCCUCCAAA [A6G G60C] : self-cleavage kobs at 2500 uM GlcN6P is < 1e-05 s⁻¹

Summary for this variant, AUAAAAGCGCCAGAACUACAGAAAUGUAGUUGACGAGGAGGGGGUUUAUCGAAUUUUCGGCGGAUGCCUGCAAA [A42G C70G] : self-cleavage kobs at 2500 uM GlcN6P is 0.000414 s⁻¹

Summary for this variant, AUAAAAGGUCCAGAACUACAGAAAUGUACUUCACGAGGAGGAGGUUUAUCGCAUUUUCGGCGGAUGCCUCCAAA [C8G G9U G29C G32C A52C] : self-cleavage kobs at 2500 uM GlcN6P is < 1e-05 s⁻¹

Summary for this variant, AUAAAAGCGCCAGAACUACAGAAAUGUAGUUGACGAGGAGGAGGGUUAUCGAAUUGUCGGCGGGUGCCUCCAAA [U45G U56G A64G] : self-cleavage kobs at 2500 uM GlcN6P is 0.00171 s⁻¹

Summary for this variant, AUAAAAGGGCCAGACCUACAGAAAUGUAGUUGACGAGGAGGAGGUUUAUCGAAUUUUCGGCGGAUGCCUCCAAA [C8G A15C] : self-cleavage kobs at 2500 uM GlcN6P is < 1e-05 s⁻¹

Summary for this variant, AUAAAAGCGCCAGAACUACAGAAAUGUAGUUGACCUGGAAGAGGUUUAUCGAAUUUUCGGCGGAUGCCUCCAAA [G35C A36U G40A] : self-cleavage kobs at 2500 uM GlcN6P is < 1e-05 s⁻¹

Summary for this variant, AUAAAUGCGCCAGGUCUACAGAAAUGUAGUGGACGAGGAGGAGGUUUAUCGAAUGUUCGGCGGAUGCCUCCAAA [A6U A14G A15U U31G U55G] : self-cleavage kobs at 2500 uM GlcN6P is < 1e-05 s⁻¹

Summary for this variant, AUAAAAGCGCCAGUUCUACAGAAAUGUAGUUGACGAGGAUGAGGUUUAUCGAAUUUUCGGCGGAUGCCUCCAAA [A14U A15U G40U] : self-cleavage kobs at 2500 uM GlcN6P is 0.000122 s⁻¹

Summary for this variant, AUAAAAGCGCCAGAACUACAGAAAUGUAGUUGACGAGGAGGAGGUUUAUCGAAUUUUCGGCGGGUGCCUCUAAA [A64G C71U] : self-cleavage kobs at 2500 uM GlcN6P is 0.00386 s⁻¹

Summary for this variant, AUAAAAGCGCCAGAACUACAGAAAUGUAGUUGACGAGGAGGGGGUUUAUCGAAUUUUCGGCGGAUGGCUCCAAA [A42G C67G] : self-cleavage kobs at 2500 uM GlcN6P is 0.00814 s⁻¹

Summary for this variant, AUAAAAGCUCCAGAAGUACAGAAAUGUACUUGACGAGGAGGAGGUUUAUCGUAUUUUCUGCGGAUGCCUCCAAA [G9U C16G G29C A52U G59U] : self-cleavage kobs at 2500 uM GlcN6P is < 1e-05 s⁻¹

Summary for this variant, AUAAAACCGCCAGAACUACAGAAAUGUAAUUGACGUGGAGGAGGUUUAUCGAAUUUUCGGCGGAUGCCUCAAAA [G7C G29A A36U C71A] : self-cleavage kobs at 2500 uM GlcN6P is < 1e-05 s⁻¹
